Assay: recombinant UMI read abundance after kanamycin selection (control-corrected) (log10(CPM+1)); higher = more efficient recombination; extreme values may be limits of the assay; sequences stand for … in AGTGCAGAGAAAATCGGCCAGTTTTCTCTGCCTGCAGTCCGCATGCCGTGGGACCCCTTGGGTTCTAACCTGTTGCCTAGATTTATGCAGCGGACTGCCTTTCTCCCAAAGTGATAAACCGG…AGGTTGGTTTCACT; site = the 11-nt donor
Label Condition met when recombinant UMI read abundance (log10) >= 0.01; otherwise Condition not met.

Does the sequence AGGTTCCCATGGACCGGTTTTCCCGGTAATCCGTATTTGTT (site AGGTTCCCTCA) have recorded recombinant UMI read abundance (log10) that is 0.01 or more?
Condition met

Determine whether this sequence has recombinant UMI read abundance (log10) no lower than 0.01: GGGGGACCATGGACCGGTTTTCCCGGTAATCCGTATTTGCA (site GGGGAACCTTG)
Condition not met

hey, is recombinant UMI read abundance (log10) for this one >= 0.01? GTGGTCGCATGGACCGGTTTTCCCGGTAATCCGTATTTGCG (site GTAGTCGCTCG)
Condition met

Is it the case that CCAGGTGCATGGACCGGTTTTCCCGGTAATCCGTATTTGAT (site CCAGGTGCTCT) has recombinant UMI read abundance (log10) reaching or exceeding 0.01?
Condition not met

Check this sequence for recombinant UMI read abundance (log10) at or above 0.01: GTTCGCGCATGGACCGGTTTTCCCGGTAATCCGTATTTGCA (site GTTCGAGCTTG)
Condition met

###

Assay: recombinant barcode read abundance after kanamycin selection (control-corrected) (log10(CPM+1)); higher = more efficient recombination; sequences stand for … in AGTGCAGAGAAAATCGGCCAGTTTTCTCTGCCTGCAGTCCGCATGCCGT…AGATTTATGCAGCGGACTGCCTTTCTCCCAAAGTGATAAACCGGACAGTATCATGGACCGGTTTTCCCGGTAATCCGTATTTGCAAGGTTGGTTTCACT; site = the 11-nt target
Give recombinant barcode read abundance (log10) for every item shown.
// return a plain number; no unit text

Could you share which recombinant barcode read abundance (log10) value was measured for GCCAACCCTTGGGTTCTAACCTGTTGCGT (site GCCAACCCTAA) ?
0.212

// lookup recombinant barcode read abundance (log10) for TTCGTTGCTTGGGTTCTAACCTGTTGCCT (site TTCGTTGCTAG)
0.302

Endpoint output: recombinant barcode read abundance (log10) of AAGCGTTCTTGGGTTCTAACCTGTTGCCT (site AAGCGTACTAG) . Value?
0.0209

Would you mind telling me what recombinant barcode read abundance (log10) value was observed for GGGGCAACTTGGGTTCTAACCTGTTGCTA (site CGGGCTACTTA) ?
0.0424

What recombinant barcode read abundance (log10) value was documented for this sequence, AAGCGTACTTGGGTTCTAACCTGTTGCCT (site AAGCGTGCTAG) ?
0.0421

Any idea what recombinant barcode read abundance (log10) was measured for AATGGTCCTTGGGTTCTAACCTGTTGCCA (site AATGGTCCTTG) ?
0.588

Which recombinant barcode read abundance (log10) is listed for CTAAGAGCTTGGGTTCTAACCTGTTGCAG (site CTAAGAGCTCG) ?
0.123

# get_value(readout='recombinant barcode read abundance (log10)', item= TAGCACACTTGGGTTCTAACCTGTTGCGG (site TAGCTCACTCC) )
0.00842

// query recombinant barcode read abundance (log10) value for entry CTGTCTCCTTGGGTTCTAACCTGTTGCGT (site AGAAGCACTTG)
0.11

Endpoint output: recombinant barcode read abundance (log10) of AGTCATACTTGGGTTCTAACCTGTTGCCT (site AGTCAAACTAG) . Value?
0

Value lookup for recombinant barcode read abundance (log10); key = GTACGGTCTTGGGTTCTAACCTGTTGCAT (site GTACGGTCTAT)
2

Fill in the blank: the reported recombinant barcode read abundance (log10) of CCGTGCCCTTGGGTTCTAACCTGTTGCCT (site GCGTGCCCTAG) is ____.
0.0432

Return reported recombinant barcode read abundance (log10); argument: TATTATACTTGGGTTCTAACCTGTTGCAT (site TATTATACTAG)
0.0602

Look at this sequence and give its reported recombinant barcode read abundance (log10). ATTGGCTCTTGGGTTCTAACCTGTTGCCT (site ATTGGATCTAG)
0.339

Form field: reported recombinant barcode read abundance (log10) of AGGCCGTCTTGGGTTCTAACCTGTTGCGG (site AGGCCGTCTCC)
0.815

What value of recombinant barcode read abundance (log10) has been reported for the following sequence? CGGATCCCTTGGGTTCTAACCTGTTGCCT (site CGGATCCCTAG)
1.39

For the sequence AATCGGCCTTGGGTTCTAACCTGTTGCGT (site AATGGGCCTAC) , what recombinant barcode read abundance (log10) is on record?
0.0625

Fill in: recombinant barcode read abundance (log10) of ACCTCGGCTTGGGTTCTAACCTGTTGCTG (site ACCTCGGCTCA) is ___
0.399

// query recombinant barcode read abundance (log10) value for entry AGTTCTCCTTGGGTTCTAACCTGTTGCCT (site AGTTCTCCTAG)
0.0504

recombinant barcode read abundance (log10) for ATTAGGACTTGGGTTCTAACCTGTTGCTG (site ATTAGGACTCA) ?
2.12

Field request: recombinant barcode read abundance (log10) | item: GGACCGCCTTGGGTTCTAACCTGTTGCCT (site GGACCGCCTAG)
0.626

###

Experiment: recombinant barcode read abundance after kanamycin selection (control-corrected) (log10(CPM+1)); higher = more efficient recombination; sequences stand for … in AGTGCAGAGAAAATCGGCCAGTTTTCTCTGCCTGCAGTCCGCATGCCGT…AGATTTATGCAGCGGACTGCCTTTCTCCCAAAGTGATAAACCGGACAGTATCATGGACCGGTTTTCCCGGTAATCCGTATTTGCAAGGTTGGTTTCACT; site = the 11-nt target
Criterion: recombinant barcode read abundance (log10) meeting or surpassing 0.2. Met: True. Not met: False.

For this sequence, is measured recombinant barcode read abundance (log10) 0.2 or higher? ACCCGTACTTGGGTTCTAACCTGTTGCCT (site ACCTGTACTAG)
True

Textbook exercise: given the entry GAGGCTTCTTGGGTTCTAACCTGTTGCCT (site GGGGCTTCTAG) , state whether its recombinant barcode read abundance (log10) is greater than or equal to 0.2.
False

Decide: is the reported value of recombinant barcode read abundance (log10) for AACAGTGCTTGGGTTCTAACCTGTTGCCT (site AACAGTGCTAG) equal to or greater than 0.2?
True

Could you please find out whether CTGGTCACTTGGGTTCTAACCTGTTGCGG (site CTAGACACTCC) has recombinant barcode read abundance (log10) that meets 0.2 or exceeds it?
False

Please tell me: is the sequence TTAAATCCTTGGGTTCTAACCTGTTGCCT (site CTAAATCCTAG) at or over 0.2 in terms of recombinant barcode read abundance (log10)?
False

Say whether ACCAAGTCTTGGGTTCTAACCTGTTGCGC (site ACCAAGTCTAC) shows recombinant barcode read abundance (log10) of 0.2 or more.
True

Exam item: decide whether the reported recombinant barcode read abundance (log10) for CAACACCCTTGGGTTCTAACCTGTTGCAT (site CAACACCCTAT) is at least 0.2.
True

Is recombinant barcode read abundance (log10) for GGACCGCCTTGGGTTCTAACCTGTTGCCT (site CGATCGCCTAG) at or above 0.2?
False

Reported recombinant barcode read abundance (log10) reaches at least 0.2 for AGTTCTCCTTGGGTTCTAACCTGTTGCCT (site TGTTCTCCTAG) ?
True

Could you tell me if the measured recombinant barcode read abundance (log10) of TGGAGTACTTGGGTTCTAACCTGTTGCTT (site TGGAGTACTAA) reaches 0.2 or more?
True

Is recombinant barcode read abundance (log10) for CGCCACCCTTGGGTTCTAACCTGTTGCCT (site CGCCACCCTAG) at or above 0.2?
False

Decide: recombinant barcode read abundance (log10) of GTGAGAACTTGGGTTCTAACCTGTTGCCA (site GTGAGAACTTG) >= 0.2?
True

In plain terms: is recorded recombinant barcode read abundance (log10) at least 0.2 for AGTCCTGCTTGGGTTCTAACCTGTTGCCT (site GGTCCTGCTAG) ?
False

Reported recombinant barcode read abundance (log10) reaches at least 0.2 for CCACGAACTTGGGTTCTAACCTGTTGCTT (site CCAAGTACTAA) ?
False

Evaluate GATGGGACTTGGGTTCTAACCTGTTGCCG (site GATGGGACTCG) : recombinant barcode read abundance (log10) at minimum 0.2?
True

State whether the measured recombinant barcode read abundance (log10) reaches 0.2, counting equality as reaching it, for GTATCACCTTGGGTTCTAACCTGTTGCCT (site GTATCAACTAG)
False

Dear colleague, could you confirm whether GTATGACCTTGGGTTCTAACCTGTTGCCT (site GTATGAACTAG) has recombinant barcode read abundance (log10) at or above 0.2?
False

Hi, just wondering whether TTGAAATCTTGGGTTCTAACCTGTTGCCT (site TTGATATCTAG) shows recombinant barcode read abundance (log10) of 0.2 or higher.
False

Is it the case that GAAAACTCTTGGGTTCTAACCTGTTGCCT (site AGGTCTACTCC) has recombinant barcode read abundance (log10) reaching or exceeding 0.2?
False
